target: Cyclophilin A (Homo sapiens); construct: made in house; test: AlphaLISA inhibition of binding of biotinylated Cyclosporin A to FLAG tagged Cyclophilin A; conditions: test concentration not given
Sequence (P62937 whole entry, species assumed): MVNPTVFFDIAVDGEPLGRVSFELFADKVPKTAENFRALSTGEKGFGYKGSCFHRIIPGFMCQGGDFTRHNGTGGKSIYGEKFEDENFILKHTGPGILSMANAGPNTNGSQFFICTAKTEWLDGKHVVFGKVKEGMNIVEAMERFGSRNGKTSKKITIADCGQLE
Where a SMILES comes first, the peptide text is derived from it. [ ]: non-standard residue; d: D form. MeBmt = C/C=C/C[C@@H](C)[C@@H](O)[C@H](NC)C(=O)O; NMeL = CN[C@@H](CC(C)C)C(=O)O; dNMeV = CN[C@@H](C(=O)O)C(C)C; NMeV = CN[C@H](C(=O)O)C(C)C; NMeA = CN[C@@H](C)C(=O)O; Abu = CC[C@H](N)C(=O)O; Sar = CNCC(=O)O
// reported % inhibition of CsA binding to Cyclophilin A for each item listed
# number only, unit % dropped from output

C/C=C/C[C@@H](C)[C@@H](O)[C@H]1C(=O)N[C@@H](CC)C(=O)N(C)CC(=O)N(C)[C@H](C(C)C)C(=O)N[C@@H](C(C)C)C(=O)N(C)[C@@H](CC(C)C)C(=O)N[C@@H](CC(C)C)C(=O)N[C@H](C)C(=O)N(C)[C@@H](CC(C)C)C(=O)N(C)[C@@H](CC(C)C)C(=O)N(C)[C@@H](C(C)C)C(=O)N1C [Compound C55] (cyclo([MeBmt][Abu][Sar][dNMeV]V[NMeL]L[dA][NMeL][NMeL][NMeV]))    67.12

Lab note: next compound to report on.
What reported % inhibition of CsA binding to Cyclophilin A corresponds to C/C=C/C[C@@H](C)[C@@H](O)[C@H]1C(=O)N[C@@H](CC)C(=O)N(C)CC(=O)N(C)CC(=O)N[C@@H](C(C)C)C(=O)N(C)[C@@H](C)C(=O)N[C@@H](CC(C)C)C(=O)N[C@H](C)C(=O)N(C)[C@@H](CC(C)C)C(=O)N(C)[C@@H](CC(C)C)C(=O)N(C)[C@@H](C(C)C)C(=O)N1C [Compound C85] (cyclo([MeBmt][Abu][Sar][Sar]V[NMeA]L[dA][NMeL][NMeL][NMeV])) on Cyclophilin A (Homo sapiens)?
99.13

====

Target: Cyclophilin A (Homo sapiens)
Construct: made in house
Assay: AlphaLISA inhibition of binding of biotinylated Cyclosporin A to FLAG tagged Cyclophilin A
Settings: AlphaLISA signal; test concentration not given
Procedure: The binding of compounds of the invention to Cyclophilin A can be determined using the following protocol. […] Add 20 uL of 6 nM Biotinylated CsA working stock to each well of the 96-well plate. […] Protect plate from light until reading on Biotek Synergy2 Plate Reader; Alphalisa 96-well protocol (680 excitation/615 emission).
Where a SMILES comes first, the peptide text is derived from it. [ ]: non-standard residue; d: D form. MeBmt = C/C=C/C[C@@H](C)[C@@H](O)[C@H](NC)C(=O)O; NMeF = CN[C@@H](Cc1ccccc1)C(=O)O; NMeI = CC[C@H](C)[C@H](NC)C(=O)O; NMeT = CN[C@H](C(=O)O)[C@@H](C)O; NMeL = CN[C@@H](CC(C)C)C(=O)O; Tle = CC(C)(C)[C@H](N)C(=O)O; NMeV = CN[C@H](C(=O)O)C(C)C; NMeA = CN[C@@H](C)C(=O)O; Abu = CC[C@H](N)C(=O)O; Sar = CNCC(=O)O
// reported % signal for each item listed
Dear colleague, please send the value followed by its unit.

C/C=C/C[C@@H](C)[C@@H](O)[C@H]1C(=O)N[C@@H](CC)C(=O)N(C)CC(=O)N(C)[C@@H](Cc2ccccc2)C(=O)N[C@@H](CC(C)C)C(=O)N(C)[C@@H](C)C(=O)N[C@@H](C)C(=O)N[C@H](C)C(=O)N(C)[C@@H](CC(C)C)C(=O)N(C)[C@@H](CC(C)C)C(=O)N(C)[C@@H](C(C)C)C(=O)N1C [Compound C12] (cyclo([MeBmt][Abu][Sar][NMeF]L[NMeA]A[dA][NMeL][NMeL][NMeV]))    3.22%
C/C=C/C[C@@H](C)[C@@H](O)[C@H]1C(=O)N[C@@H](CC)C(=O)N(C)CC(=O)N(C)[C@@H]([C@@H](C)CC)C(=O)N[C@@H](C(C)(C)C)C(=O)N(C)[C@@H](C)C(=O)N[C@@H](CC(C)C)C(=O)N[C@H](C)C(=O)N(C)[C@@H](CC(C)C)C(=O)N(C)[C@@H](CC(C)C)C(=O)N(C)[C@@H](C(C)C)C(=O)N1C [Compound C69] (cyclo([MeBmt][Abu][Sar][NMeI][Tle][NMeA]L[dA][NMeL][NMeL][NMeV]))    0.03%
C/C=C/C[C@@H](C)[C@@H](O)[C@H]1C(=O)N[C@@H](CC)C(=O)N(C)CC(=O)N(C)[C@@H]([C@@H](C)CC)C(=O)N[C@@H](C(C)C)C(=O)N(C)[C@@H](C)C(=O)N[C@@H](C)C(=O)N[C@H](C)C(=O)N(C)[C@@H](CC(C)C)C(=O)N(C)[C@@H](CC(C)C)C(=O)N(C)[C@@H](C(C)C)C(=O)N1C [Compound C1] (cyclo([MeBmt][Abu][Sar][NMeI]V[NMeA]A[dA][NMeL][NMeL][NMeV]))    0.56%
C/C=C/C[C@@H](C)[C@@H](O)[C@H]1C(=O)N[C@@H](CC)C(=O)N(C)CC(=O)N(C)[C@H](C)C(=O)N[C@@H](C(C)C)C(=O)N(C)[C@@H](CC(C)C)C(=O)N[C@@H](C)C(=O)N[C@H](C)C(=O)N(C)[C@@H](CC(C)C)C(=O)N(C)[C@@H](CC(C)C)C(=O)N(C)[C@@H](C(C)C)C(=O)N1C [Compound C35]    0.89%

Lab note: next compound to report on.
% signal for C/C=C/C[C@@H](C)[C@@H](O)[C@H]1C(=O)N[C@@H](CC)C(=O)N(C)CC(=O)N(C)[C@@H]([C@@H](C)O)C(=O)N[C@@H](C(C)C)C(=O)N(C)[C@@H](C)C(=O)N[C@@H](CC(C)C)C(=O)N[C@H](C)C(=O)N(C)[C@@H](CC(C)C)C(=O)N(C)[C@@H](CC(C)C)C(=O)N(C)[C@@H](C(C)C)C(=O)N1C [Compound C87] (cyclo([MeBmt][Abu][Sar][NMeT]V[NMeA]L[dA][NMeL][NMeL][NMeV])) ?
4.53%
